Every entry's value here was drawn from patent US20090311283A1.

target_or_test_system: HLA-A*6801 (human)
protocol_details: competition with 125I probe peptide on purified HLA-A*6801; relative to standard peptide 941.12
assay_conditions: remark: other sources report otherwise
readout_kind: binding affinity ratio (IC50 standard peptide / IC50 test peptide)
Form field (numeric): enter value without unit.

Prompt: Report measured binding affinity ratio (IC50 standard peptide / IC50 test peptide); entry is SAICSVVR (modifications not checked) [HBV POL 520 peptide SAICSVVR]
Completion: 0.069

Prompt: Report measured binding affinity ratio (IC50 standard peptide / IC50 test peptide); entry is TSAICSVVR (modifications not checked) [HBV POL 519 peptide …]
Completion: 0.082

Prompt: Report measured binding affinity ratio (IC50 standard peptide / IC50 test peptide); entry is SAGPCALR (modifications not checked) [HBV X 65 peptide SAGPCALR]
Completion: 0.036

Prompt: Report measured binding affinity ratio (IC50 standard peptide / IC50 test peptide); entry is TAELLAACFAR (modifications not checked) [HBV POL 716 peptide …]
Completion: 0.059
